target: Aβ (1-42) peptide (Homo sapiens, UniProt P05067)
Construct: the synthetic Aβ (1-42) peptide was weighed in an Eppendorf tube; purchased Kelowna International Scientific Inc; host or cells: synthetic peptide
Sequence (P05067 672-713): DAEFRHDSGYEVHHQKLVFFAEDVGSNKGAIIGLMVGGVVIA
test: Inhibition of Aβ (1-42) aggregation in vitro (ThT fluorescent assay)
Assay type: biochemical
condition.description: 1:4 ratio of Aβ to compound, 10 μM to 40 μM; 37 °C, 24 h
Recorded inhibition of Aβ aggregation for the following compounds

compound	inhibition of Aβ aggregation (%)
O=C(OC[C@H]1O[C@@H](OC(=O)c2cc(O)c(O)c(O)c2)[C@H](OC(=O)c2cc(O)c(O)c(O)c2)[C@@H](O)[C@@H]1O)c1cc(O)c(O)c(O)c1 [TT-4, 1,2,6-tri-O-galloyl-β-D-glucopyranoside]	100
O=C(O)c1cc(O)c(O)c(O)c1 [TT-6, gallic acid]	88.19
O=C(OC1O[C@@H]2COC(=O)c3cc(O)c(O)c(O)c3-c3c(cc(O)c(O)c3O)C(=O)O[C@H]2[C@H](OC(=O)c2cc(O)c(O)c(O)c2)[C@H]1OC(=O)c1cc(O)c(O)c(O)c1)c1cc(O)c(O)c(O)c1 (stereo partly shown) [TT-1, Tellimagrandin II]	100
O=C(O[C@H]1[C@@H]2OC(=O)c3cc(O)c(O)c(O)c3-c3c(cc(O)c(O)c3O)C(=O)OC[C@H]2OC(O)[C@@H]1OC(=O)c1cc(O)c(O)c(O)c1)c1cc(O)c(O)c(O)c1 (stereo partly shown) [TT-8, tellimagrandin I]	100
